- testedSystem: cloned hERG potassium channel encoded by the KCNH2 gene (Homo sapiens, UniProt Q12809)
- Sequence (Q12809 whole entry): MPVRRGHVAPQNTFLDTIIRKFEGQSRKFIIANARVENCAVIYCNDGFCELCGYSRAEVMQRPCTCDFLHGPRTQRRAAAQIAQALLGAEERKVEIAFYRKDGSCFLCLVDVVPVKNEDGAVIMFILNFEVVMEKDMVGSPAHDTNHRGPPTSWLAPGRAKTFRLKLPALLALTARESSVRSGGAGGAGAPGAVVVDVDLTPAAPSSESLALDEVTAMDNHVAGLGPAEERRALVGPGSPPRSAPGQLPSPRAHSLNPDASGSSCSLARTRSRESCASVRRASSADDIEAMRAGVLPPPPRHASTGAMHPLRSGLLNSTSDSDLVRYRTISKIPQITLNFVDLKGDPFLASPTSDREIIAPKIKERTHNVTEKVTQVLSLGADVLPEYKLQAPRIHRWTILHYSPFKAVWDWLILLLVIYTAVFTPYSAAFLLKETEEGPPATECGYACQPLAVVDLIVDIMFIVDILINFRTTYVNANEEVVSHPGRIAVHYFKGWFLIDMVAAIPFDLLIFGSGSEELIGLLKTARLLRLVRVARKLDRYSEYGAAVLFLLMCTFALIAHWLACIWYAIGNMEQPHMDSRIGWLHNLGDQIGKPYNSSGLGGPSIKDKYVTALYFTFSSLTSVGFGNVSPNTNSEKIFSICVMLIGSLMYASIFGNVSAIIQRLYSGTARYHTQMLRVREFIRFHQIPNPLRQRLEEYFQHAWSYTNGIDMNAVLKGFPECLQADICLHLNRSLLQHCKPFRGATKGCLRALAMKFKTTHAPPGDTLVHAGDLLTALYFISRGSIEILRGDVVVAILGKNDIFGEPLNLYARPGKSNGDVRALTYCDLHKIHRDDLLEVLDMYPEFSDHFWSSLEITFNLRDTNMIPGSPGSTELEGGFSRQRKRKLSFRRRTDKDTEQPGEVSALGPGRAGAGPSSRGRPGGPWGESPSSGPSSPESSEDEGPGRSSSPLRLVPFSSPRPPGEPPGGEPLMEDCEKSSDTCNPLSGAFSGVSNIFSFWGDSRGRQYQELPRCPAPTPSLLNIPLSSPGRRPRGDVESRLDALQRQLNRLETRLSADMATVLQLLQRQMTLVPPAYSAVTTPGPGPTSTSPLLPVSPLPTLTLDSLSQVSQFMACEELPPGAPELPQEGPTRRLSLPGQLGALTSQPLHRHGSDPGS
- assayComment: hERG FASTPatch assay (QPatch patch clamp, HEK293T cells)
- assayConditions: HEK293T cells, 1, 3, 10 and 30 uM, room temperature; Table 27
parameter: pIC50
Remember, pIC50 is on a log scale: it is -log10 of the molar concentration.

// below: answered compounds
Cc1cc(-c2[nH]c3cc(-c4ccc(N5CCC(C)(N)CC5)nc4)ccc3c2C)cc(C)n1	4.73
Cc1cc(-c2[nH]c3ccc(C4CCCNC4)cc3c2C(C)C)cc(C)n1 (stereo not shown) [Example C, reference compound]	4.96
Cc1cc(-c2[nH]c3cc(-c4ccnc(N5CCNCC5)c4)ccc3c2C)cc(C)n1	4.69

Given the entry Cc1cc(-c2[nH]c3ccc(-c4ccc(N5CCC(C)(N)CC5)nc4)cc3c2C(C)C)cc(C)n1 [Example D, reference compound] , report its measured pIC50.
5.11

Note, next up: Cc1cc(-c2[nH]c3ccc(-c4ccnc(N5CCNCC5)c4)cc3c2C(C)C)cc(C)n1 [Example B, reference compound]
5.68

Also check Cc1cc(-c2[nH]c3cc(C4CCCNC4)ccc3c2C)cc(C)n1 (stereo not shown)
4.71

* * *

- testedSystem: TLR7 (Homo sapiens, UniProt Q9NYK1)
- Construct: lymphocytes, monocytes and dendritic cells that express TLR7, TLR8 and TLR9; endogenous in cells; host or cells: human PBMCs from healthy donors
- Sequence (Q9NYK1 27-1049): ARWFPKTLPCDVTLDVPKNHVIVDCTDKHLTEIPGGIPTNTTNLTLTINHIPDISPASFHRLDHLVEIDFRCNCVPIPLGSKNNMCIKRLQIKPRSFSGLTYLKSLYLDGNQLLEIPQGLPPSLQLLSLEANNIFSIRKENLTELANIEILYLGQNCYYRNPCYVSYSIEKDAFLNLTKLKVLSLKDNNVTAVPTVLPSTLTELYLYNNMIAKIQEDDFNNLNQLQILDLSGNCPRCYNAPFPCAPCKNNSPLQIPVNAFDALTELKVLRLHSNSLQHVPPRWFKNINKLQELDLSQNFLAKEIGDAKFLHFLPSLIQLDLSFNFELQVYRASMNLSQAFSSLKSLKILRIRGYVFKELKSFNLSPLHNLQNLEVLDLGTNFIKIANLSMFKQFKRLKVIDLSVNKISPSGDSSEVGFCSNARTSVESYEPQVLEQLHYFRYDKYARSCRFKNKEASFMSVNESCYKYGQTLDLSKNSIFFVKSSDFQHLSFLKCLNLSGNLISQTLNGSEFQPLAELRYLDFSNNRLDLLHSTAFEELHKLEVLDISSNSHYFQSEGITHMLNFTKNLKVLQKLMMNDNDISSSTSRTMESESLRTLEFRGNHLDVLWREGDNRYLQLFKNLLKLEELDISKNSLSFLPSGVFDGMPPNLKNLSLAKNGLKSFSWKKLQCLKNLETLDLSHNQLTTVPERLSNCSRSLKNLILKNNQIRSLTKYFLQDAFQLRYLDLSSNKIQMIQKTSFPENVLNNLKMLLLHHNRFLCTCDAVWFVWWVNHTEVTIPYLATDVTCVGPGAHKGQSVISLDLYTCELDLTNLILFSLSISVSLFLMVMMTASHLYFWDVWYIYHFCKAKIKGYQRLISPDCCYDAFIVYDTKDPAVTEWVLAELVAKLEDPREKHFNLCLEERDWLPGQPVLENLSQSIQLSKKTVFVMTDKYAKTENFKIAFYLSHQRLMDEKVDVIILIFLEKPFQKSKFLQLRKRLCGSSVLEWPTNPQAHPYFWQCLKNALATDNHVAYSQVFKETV
- assayComment: Human PBMC cell-based assay, TLR7 agonist GS-986 stimulation, cytokine (IL-6 and IFNα) readout
- assayConditions: human PBMCs, GS-986 400 nM, 6 hours; Table 26; read-out: TLR-7 EC50
pEC50: −log10 of the molar value.
Classification field: YES = pEC50 at or over 7; NO = pEC50 under 7.

Cc1cc(-c2[nH]c3cc(-c4ccc(N5CCN(C(=O)[C@H]6COCCN6)CC5)nc4)ccc3c2C)cc(C)n1	YES

Kindly determine if pEC50 recorded for `Cc1cc(-c2[nH]c3cc(-c4ccc(N5CCN(CCO)CC5)nc4)ccc3c2C2CC2)cc(C)n1` is above or exactly 7.
YES

And the next one, `Cc1cc(-c2[nH]c3cc(-c4ccnc(N(C)C)c4)ccc3c2C)cc(C)n1` ?
NO

Now the molecule `Cc1cc(-c2[nH]c3cc(-c4ccc5nc([C@@H]6CCCNC6)[nH]c5c4)ccc3c2C)cc(C)n1`
YES

* * *

- testedSystem: TLR9 (Homo sapiens)
- Construct: lymphocytes, monocytes and dendritic cells that express TLR7, TLR8 and TLR9; endogenous in cells; host or cells: human PBMCs from healthy donors
- Sequence (Q9NR96 26-1032): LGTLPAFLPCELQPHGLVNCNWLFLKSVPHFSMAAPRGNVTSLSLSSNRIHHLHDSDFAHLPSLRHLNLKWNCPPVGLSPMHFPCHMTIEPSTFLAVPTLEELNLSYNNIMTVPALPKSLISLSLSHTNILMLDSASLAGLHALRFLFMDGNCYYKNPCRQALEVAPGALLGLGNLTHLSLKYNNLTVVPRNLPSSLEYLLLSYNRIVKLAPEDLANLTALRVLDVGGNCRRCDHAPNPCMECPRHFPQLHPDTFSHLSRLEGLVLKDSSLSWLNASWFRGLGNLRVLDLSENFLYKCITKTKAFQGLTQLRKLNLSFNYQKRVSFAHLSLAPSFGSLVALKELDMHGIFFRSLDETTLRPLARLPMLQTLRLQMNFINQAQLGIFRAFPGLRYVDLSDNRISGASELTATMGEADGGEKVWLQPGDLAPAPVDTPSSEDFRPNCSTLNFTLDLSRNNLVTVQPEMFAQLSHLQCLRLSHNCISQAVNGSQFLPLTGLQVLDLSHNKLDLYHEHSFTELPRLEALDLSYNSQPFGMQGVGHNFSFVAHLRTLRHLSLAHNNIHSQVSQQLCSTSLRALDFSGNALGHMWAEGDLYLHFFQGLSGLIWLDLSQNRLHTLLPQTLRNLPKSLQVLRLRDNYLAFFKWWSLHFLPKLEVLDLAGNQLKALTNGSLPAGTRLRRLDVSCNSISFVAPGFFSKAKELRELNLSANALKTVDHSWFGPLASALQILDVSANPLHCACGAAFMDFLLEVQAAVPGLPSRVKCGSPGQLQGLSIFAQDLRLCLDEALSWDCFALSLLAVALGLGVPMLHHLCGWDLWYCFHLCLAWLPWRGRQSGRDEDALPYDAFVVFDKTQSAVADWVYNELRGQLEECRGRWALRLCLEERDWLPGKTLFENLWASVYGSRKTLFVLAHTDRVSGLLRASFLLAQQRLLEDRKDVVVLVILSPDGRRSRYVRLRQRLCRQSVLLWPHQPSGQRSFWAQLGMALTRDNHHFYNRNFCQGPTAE
- assayComment: Human PBMC cell-based assay, TLR9 agonist ODN-2216 stimulation, cytokine (IL-6 and IFNα) readout
- assayConditions: human PBMCs, ODN-2216 3 μM, 6 hours; Table 26; read-out: TLR-9 EC50
In this section, each of the compounds is paired with its reported log10 of EC50.
Hi team, quick reminder: these entries are log10 of EC50 (nM).

May I ask what log10 of EC50 has been recorded for Cc1cc(-c2[nH]c3cc(C4CCNCC4)ccc3c2C(C)C)cc(C)n1 [Example 50] ?
2.89

Another compound to check: Cc1cc(-c2[nH]c3cc(C(=O)N[C@H]4CCCNC4)ccc3c2C)cc(C)n1 [Example 179]
2.32

Try the compound Cc1cc(-c2[nH]c3cc(-c4ccn5ncnc5c4)ccc3c2C)cc(C)n1 [Example 58]
3.05

Entry to check: Cc1cc(-c2[nH]c3cc(-c4ccc(N5CCNCC5)nc4)ccc3c2C)cc(C#N)n1 [Example 77]
2.89

Would you mind doing Cc1cc(-c2[nH]c3cc(-c4cnc(N5CCNCC5)nc4)ccc3c2C2CC2)cc(C)n1 [Example 67] as well?
2.30

How about this compound: Cc1cc(-c2[nH]c3cc(-c4cccc5c4CNC5)ccc3c2C)cc(C)n1 [Example 19]
2.04

What do we get for Cc1c(-c2cc(C)c3ncnn3c2)[nH]c2cc(-c3ccc(N4CCNCC4)nc3)ccc12 [Example 71] ?
2.80

Entry Cc1cc(-c2[nH]c3cc(-c4ccc(N5CCC(C)(N)CC5)nc4)ccc3c2C)cc(C)n1 [Example 23] please
1.46

Same thing, different compound: Cc1c(-c2cc(C)c3ncnn3c2)[nH]c2nc(C3CCNCC3)ccc12 [Example 153]
3.20
